# credit: the supplement of paper PMC11451515

Test system: NOMO1
PROTOCOL NOTES: cell viability relative to DMSO control; higher = less cytotoxic
PARTICULARS: RPMI 5 mM glucose + 10% FBS; 48 h; 5.12 µM
QUANTITY MEASURED: cell viability (%)
Hi! Could you send only the number? It should be in %, unit omitted.

Record excerpt, results attached:
[
  {
    "MOLECULE": "CC(C)CC(N(C)C)C1(c2ccc(Cl)cc2)CCC1 (configuration not stated)",
    "QUANTITY MEASURED": "cell viability",
    "VAL": 98.2
  },
  {
    "MOLECULE": "COc1cc2c(Nc3ccc(Cl)c(Cl)c3F)ncnc2cc1OC[C@@H]1C[C@@H]2CN(C)C[C@@H]2C1",
    "QUANTITY MEASURED": "cell viability",
    "VAL": 111
  },
  {
    "MOLECULE": "O=[S+]([O-])(NCCNC/C=C/c1ccc(Br)cc1)c1cccc2cnccc12",
    "QUANTITY MEASURED": "cell viability",
    "VAL": 84
  },
  {
    "MOLECULE": "C[N]1C=C(C=N1)C2=CC=C3N=CC\\4=C(N(C(=O)\\C=C4)C5=CC6=C(CCN6C(=O)C=C)C=C5)C3=C2",
    "QUANTITY MEASURED": "cell viability",
    "VAL": 69.3
  },
  {
    "MOLECULE": "CN1CCN(CCCN2c3ccccc3Sc3ccc(Cl)cc32)CC1.O=C(O)/C=C\\C(=O)O.O=C(O)/C=C\\C(=O)O",
    "QUANTITY MEASURED": "cell viability",
    "VAL": 58.3
  }
]

The molecule identified as CC(C)[N+]1(C)C2CCC1CC(OC(=O)C(CO)c1ccccc1)C2.O.[Br-] (configuration not stated) registered its cell viability at 109

The molecule identified as O=C(NCC1CCOCC1)c1cnc(Nc2ccc(Cl)cc2Cl)nc1C(F)(F)F registered its cell viability at 127

* * *

Tested on: SEM cells
PROTOCOL NOTES: AUC of viability dose-response curve (% viability x log10 dose units); higher = less sensitive
PARTICULARS: RPMI 5 mM glucose + 10% FBS; 48 h
QUANTITY MEASURED: AUC of viability dose-response curve
Enter a number only.

Record excerpt, results attached:
[
  {
    "MOLECULE": "CC(C)n1cnc2c(NCCc3ccc(O)cc3)nc(-c3csc4ccccc34)nc21",
    "AUC of viability dose-response curve": 396
  },
  {
    "MOLECULE": "C[C@@H](N)C1CC[C@@H](CC1)C(=O)NC2=CC=NC=C2 (some centres not stated)",
    "AUC of viability dose-response curve": 452
  },
  {
    "MOLECULE": "O=C(Nc1cccc(Br)c1)c1cccc([S+](=O)([O-])N2CCCCCC2)c1",
    "AUC of viability dose-response curve": 436
  }
]

The molecule identified as CC(C)Cn1cnc2c(N)nc3ccccc3c21 registered its AUC of viability dose-response curve at 452

The molecule identified as CC[C@@H]1C(=O)N(C)c2cnc(Nc3ccc(C(=O)NC4CCN(C)CC4)cc3OC)nc2N1C1CCCC1 registered its AUC of viability dose-response curve at 215

The molecule identified as C=CC(=O)Nc1ccc2ncnc(Nc3ccc(OCc4cccc(F)c4)c(Cl)c3)c2c1 registered its AUC of viability dose-response curve at 400

The molecule identified as O=C1N\C=N/C2=C1C=N[NH]2 registered its AUC of viability dose-response curve at 350

The molecule identified as O=[S+]([O-])(NCCNC/C=C/c1ccc(Br)cc1)c1cccc2cnccc12 registered its AUC of viability dose-response curve at 418

The molecule identified as Cc1ccc(-c2cc(C(F)(F)F)nn2-c2ccc([S+](N)(=O)[O-])cc2)cc1 registered its AUC of viability dose-response curve at 460

The molecule identified as FC(F)(F)c1ccc(CNc2ccc(Cc3c[nH]c4ncc(Cl)cc34)cn2)cn1 registered its AUC of viability dose-response curve at 245

The molecule identified as CC(C)c1c(C(=O)Nc2ccccc2)c(-c2ccccc2)c(-c2ccc(F)cc2)n1CC[C@@H](O)C[C@@H](O)CC(=O)[O-] registered its AUC of viability dose-response curve at 439

* * *

Tested on: P12-Ichikawa
PROTOCOL NOTES: AUC of viability dose-response curve (% viability x log10 dose units); higher = less sensitive
PARTICULARS: HPLM + 10% dialyzed FBS; 48 h
Decide using AUC of viability dose-response curve alone. Strictly below 400: 1 (yes). Equal to or above 400: 0 (no).

Observe how each entry below is paired with its result.
[
  {
    "COMPOUND": "CCCCCCCCCCCC/1=C(O)/C(=O)/C=C(O)\\C1=O",
    "CLASS LABEL": "1 (yes)"
  },
  {
    "COMPOUND": "COC(=O)[C@H](c1ccccc1Cl)N1CCc2sccc2C1",
    "CLASS LABEL": "0 (no)"
  },
  {
    "COMPOUND": "Nc1nc(NCCNc2ncc(-n3ccnc3)c(-c3ccc(Cl)cc3Cl)n2)ccc1[N+](=O)[O-]",
    "CLASS LABEL": "0 (no)"
  }
]

Query block: Consider the compound CCN(CC)CCCC(C)Nc1nc(C)cc(Nc2ccc3nc(C)cc(N)c3c2)n1 (centres undefined) . Is its AUC of viability dose-response curve strictly less than 400?
Result block: 0 (no)

Query block: Consider the compound COc1ccc([S+](=O)([O-])Nc2cccnc2Nc2ccc(O)cc2)cc1 . Is its AUC of viability dose-response curve strictly less than 400?
Result block: 1 (yes)

Query block: Consider the compound NC\1=N\C(=O)N(\C=C1F)[C@H]2C[C@H](O)[C@@H](CO)O2 . Is its AUC of viability dose-response curve strictly less than 400?
Result block: 1 (yes)

Query block: Consider the compound Cn1ccc2cc3c(cc21)CCN3C(=O)Nc1cccnc1 . Is its AUC of viability dose-response curve strictly less than 400?
Result block: 0 (no)

Query block: Consider the compound CCC(C1CCC(C)C(O1)C(C)C(O)C(C)C(=O)C(CC)C2OC\3(O[C@]4(CC[C@@](C)(O4)C5CC[C@@](O)(CC)C(C)O5)C(O)\C=C3)C(C)CC2C)C([O-])=O (some centres undefined) . Is its AUC of viability dose-response curve strictly less than 400?
Result block: 0 (no)

* * *

Property: cell viability; scope: individual molecules
Tested on: SEM cells
PROTOCOL NOTES: cell viability relative to DMSO control; higher = less cytotoxic
PARTICULARS: RPMI 5 mM glucose + 10% dialyzed FBS; 48 h; 0.00234 µM
Hey, just the number and the unit after it is fine.

Record excerpt, results attached:
[
  {
    "MOLECULE": "Cc1ccc([S+](=O)([O-])Nc2cc(Cl)ccc2C(=O)Nc2nc(-c3ccccc3)cs2)cc1",
    "QUANTITY MEASURED": "cell viability",
    "VAL": "110%"
  },
  {
    "MOLECULE": "CN(C)CCc1c[nH]c2ccc(C[S+](=O)([O-])N3CCCC3)cc12",
    "QUANTITY MEASURED": "cell viability",
    "VAL": "96%"
  },
  {
    "MOLECULE": "COc1cc2ncn(-c3cc(OCc4ccccc4C(F)(F)F)c(C(N)=O)s3)c2cc1OC",
    "QUANTITY MEASURED": "cell viability",
    "VAL": "112%"
  },
  {
    "MOLECULE": "CN(C(Cc1ccc(O[S+](=O)([O-])c2cccc3cnccc23)cc1)C(=O)N1CCN(c2ccccc2)CC1)[S+](=O)([O-])c1cccc2cnccc12 (stereo not given)",
    "QUANTITY MEASURED": "cell viability",
    "VAL": "120%"
  },
  {
    "MOLECULE": "N#C/C(=C1/Nc2ccccc2S1)c1ccnc(OCc2ccc(CN3CCOCC3)cc2)n1",
    "QUANTITY MEASURED": "cell viability",
    "VAL": "84.4%"
  }
]

The molecule identified as C[C@@H](N)C1CC[C@@H](CC1)C(=O)NC2=CC=NC=C2 (stereo not given in full) registered its cell viability at 107%

* * *

Tested on: P12-Ichikawa
PROTOCOL NOTES: cell viability relative to DMSO control; higher = less cytotoxic
PARTICULARS: RPMI 5 mM glucose + 10% FBS; 48 h; 0.0632 µM
Property: cell viability; scope: individual compounds
Hey, just the number and the unit after it is fine.

The compound identified as CC(C)c1c(C(=O)Nc2ccccc2)c(-c2ccccc2)c(-c2ccc(F)cc2)n1CC[C@@H](O)C[C@@H](O)CC(=O)[O-] registered its cell viability at 97.1%

The compound identified as CN(C)CCOc1ccc(/C(=C(/CCCl)c2ccccc2)c2ccccc2)cc1 registered its cell viability at 109%

The compound identified as CCC(C1CCC(C)C(O1)C(C)C(O)C(C)C(=O)C(CC)C2OC\3(O[C@]4(CC[C@@](C)(O4)C5CC[C@@](O)(CC)C(C)O5)C(O)\C=C3)C(C)CC2C)C([O-])=O (stereo partly drawn) registered its cell viability at 104%
